Biological target: T1, EsCas13d, nuclease-dead (Eubacterium siraeum, UniProt B0MS50, R295A;H300A;R849A;H854A)
T1 sequence: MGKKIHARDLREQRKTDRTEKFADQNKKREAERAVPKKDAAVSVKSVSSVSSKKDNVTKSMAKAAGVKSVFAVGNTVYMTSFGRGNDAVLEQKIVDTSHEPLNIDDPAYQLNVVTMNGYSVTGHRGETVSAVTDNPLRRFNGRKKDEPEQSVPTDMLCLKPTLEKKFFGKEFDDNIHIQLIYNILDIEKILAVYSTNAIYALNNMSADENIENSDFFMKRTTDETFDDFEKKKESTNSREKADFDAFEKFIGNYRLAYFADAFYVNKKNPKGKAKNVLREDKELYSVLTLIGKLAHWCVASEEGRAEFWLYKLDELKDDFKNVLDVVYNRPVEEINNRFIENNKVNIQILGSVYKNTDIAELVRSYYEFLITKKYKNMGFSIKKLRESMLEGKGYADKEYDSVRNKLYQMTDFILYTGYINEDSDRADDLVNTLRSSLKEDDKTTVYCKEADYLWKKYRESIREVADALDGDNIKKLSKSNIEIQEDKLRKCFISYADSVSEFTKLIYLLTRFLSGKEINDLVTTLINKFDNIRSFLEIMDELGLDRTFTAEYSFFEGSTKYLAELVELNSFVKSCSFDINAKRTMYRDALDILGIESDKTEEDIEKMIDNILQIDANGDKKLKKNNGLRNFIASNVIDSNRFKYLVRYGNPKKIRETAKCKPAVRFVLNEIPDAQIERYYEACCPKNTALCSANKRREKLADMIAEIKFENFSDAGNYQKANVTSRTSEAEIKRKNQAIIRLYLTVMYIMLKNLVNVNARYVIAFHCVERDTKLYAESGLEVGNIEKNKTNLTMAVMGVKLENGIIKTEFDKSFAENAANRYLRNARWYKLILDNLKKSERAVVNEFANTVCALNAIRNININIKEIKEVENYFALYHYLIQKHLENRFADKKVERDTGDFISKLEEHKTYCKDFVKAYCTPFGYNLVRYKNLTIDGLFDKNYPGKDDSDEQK
Experiment: crRNA (strand 1, pre-loaded); Mg2+; 40 mM Tris-HCl pH 7.5, 150 mM NaCl, 6 mM MgCl2, 1 mM DTT, 0.1% Tween-20, 0.2 mg/ml BSA; 25 C; 10 min per concentration, then washed
Conditions: tags: His6-TwinStrep-SUMO cleaved; N-terminal SNAP kept (SNAP-Surface 488); label: 3' end held by stalled T7 RNA polymerase
Would you kindly list pKd for each of these binders?
Numbers only, as −log10 of the molar value.

Below are worked cases with known answers.
{"binder": "target 1 insA 3' of 11,insC 3' of 8 (mixed) RNA 1: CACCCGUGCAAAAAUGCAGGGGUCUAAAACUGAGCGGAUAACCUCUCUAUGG RNA 2: GGGAAUGGAUCCACAUCUACGAAUUCGUACCAUAGAGAGGUAUAUCCCGCUCACCGAGAUCGGAAGAGCACACGU", "measure": "pKd", "reported measurement": 7.78}
{"binder": "target 1 insG 3' of 11,insC 3' of 3 (mixed) RNA 1: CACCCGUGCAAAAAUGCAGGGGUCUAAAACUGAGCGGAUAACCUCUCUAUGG RNA 2: GGGAAUGGAUCCACAUCUACGAAUUCGUACCAUAGAGAGGUGUAUCCGCUCCACCGAGAUCGGAAGAGCACACGU", "measure": "pKd", "reported measurement": 7.29}
{"binder": "target 1 insG 3' of 16,insA 3' of 3 (mixed) RNA 1: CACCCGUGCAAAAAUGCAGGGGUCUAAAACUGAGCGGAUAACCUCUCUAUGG RNA 2: GGGAAUGGAUCCACAUCUACGAAUUCGUACCAUAGAGGAGGUUAUCCGCUACACCGAGAUCGGAAGAGCACACGU", "measure": "pKd", "reported measurement": 7.75}

Now take the following binder into account.
Prompt line: Param item = target 1 insC 3' of 15,insC 3' of 9 (mixed) RNA 1: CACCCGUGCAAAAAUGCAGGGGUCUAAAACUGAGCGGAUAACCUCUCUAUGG RNA 2: GGGAAUGGAUCCACAUCUACGAAUUCGUACCAUAGAGCAGGUUACUCCGCUCACCGAGAUCGGAAGAGCACACGU ; retrieve measured pKd.
Response line: 7.70
